Reference source: PubChem BioAssay AID1159580

# EXPERIMENT_DESCRIPTION: chemical genetic growth profiling, strain panel (AID 1159580);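 also: tested at 20 µM; growth read once vehicle control cultures reached saturation at 30 °C; lower values mean less growth of the strain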
# MEASUREMENT_SETUP: S. cerevisiae deletion strains, growth OD, locus YCL016C, strain dcc1
Out of some 5,500 compounds screened, about 2,000 (36%) were called active. About 18% were inconclusive and are not listed. Rule as the data show it: active = normalized growth mostly below about 0.91 (no sharp cut-off); inconclusive = no clear call, values can overlap the other calls; inactive = mostly above about 0.92. The list shows a part of the results.
Pick one and only one: active, inactive

Kindly provide the recorded test outcome for the following compound: `Cc1cc(-c2ccccc2)nnc1NCCN1CCOCC1`
inactive

Kindly provide the recorded test outcome for the following compound: `N[C@@H](CC(=O)N1CCn2c(nnc2C(F)(F)F)C1)Cc1cc(F)c(F)cc1F`
inactive

Kindly provide the recorded test outcome for the following compound: `Cc1cccc(Nc2ccccc2C(=O)O)c1C`
active

Kindly provide the recorded test outcome for the following compound: CC(=O)OC1CCC2(C)C(=CC=C3C2CCC2(C)C3CCC2C(C)/C=C/C(C)C(C)C)C1(C)C (stereo not drawn)
inactive

Kindly provide the recorded test outcome for the following compound: `COc1cc(OC)c2c(=O)c(-c3ccccc3)coc2c1`
inactive

Kindly provide the recorded test outcome for the following compound: O=S1OCC2C(CO1)C1(Cl)C(Cl)=C(Cl)C2(Cl)C1(Cl)Cl (stereo not drawn)
inactive

Kindly provide the recorded test outcome for the following compound: `Cc1ccc(Cl)c(Nc2ccccc2C(=O)O)c1Cl`
active

Kindly provide the recorded test outcome for the following compound: CC(C)C(C)/C=C/C(C)C1CCC2C3=CC=C4CC(O)CCC4(C)C3CCC21C (stereo not drawn)
inactive

Kindly provide the recorded test outcome for the following compound: C=C1CCC2C(CC2(C)C)C(=O)CCC1O (stereo not drawn)
inactive

Kindly provide the recorded test outcome for the following compound: `CCOC(=O)Nc1nc2ccccc2[nH]1`
inactive

Kindly provide the recorded test outcome for the following compound: `CC(=O)Oc1c(C)cccc1C(=O)O`
inactive

Kindly provide the recorded test outcome for the following compound: CC(C)C(C)/C=C/C(C)[C@H]1CCC2C3=CCC4CC(=O)CC[C@]4(C)C3CC[C@@]21C (stereo partly drawn)
inactive

Kindly provide the recorded test outcome for the following compound: `Cc1cc(NC(=O)C2=C(O)c3ccccc3S(=O)(=O)N2C)no1`
inactive

Kindly provide the recorded test outcome for the following compound: C=C1CCC(C2CC(=O)OC2=O)C(=O)CCC2C1CC2(C)C (stereo not drawn)
inactive

Kindly provide the recorded test outcome for the following compound: `O=C(O)CN(CC(=O)O)Cc1cc2c(-c3ccccc3C(=O)O)c3cc(CN(CC(=O)O)CC(=O)O)c(=O)cc-3oc2cc1O`
inactive

Kindly provide the recorded test outcome for the following compound: COC(=O)C(O)c1ccccc1 (stereo not drawn)
inactive

Kindly provide the recorded test outcome for the following compound: C=C1CCC2C(CC2(C)C)C(=C)CC/C1=N\O (stereo not drawn)
inactive

Kindly provide the recorded test outcome for the following compound: COC(=O)C(C)c1ccc(C(=O)c2cccs2)cc1 (stereo not drawn)
inactive

Kindly provide the recorded test outcome for the following compound: `Clc1cccc(Cl)c1NC1=NCCN1`
inactive

Kindly provide the recorded test outcome for the following compound: `CO/N=C(\C(=O)N[C@@H]1C(=O)N2C(C(=O)O)=C(CSc3nc(=O)c(O)nn3C)CS[C@H]12)c1csc(N)n1`
inactive

Kindly provide the recorded test outcome for the following compound: `CN1C(C(=O)Nc2ccccn2)=C(O)c2ccccc2S1(=O)=O`
inactive

Kindly provide the recorded test outcome for the following compound: `Cc1ccc(C)c(OCCCC(C)(C)C(=O)O)c1`
inactive

Kindly provide the recorded test outcome for the following compound: CO[C@@]1(NC(=O)CSCC#N)C(=O)N2C(C(=O)O)=C(CSc3nnnn3C)CSC21 (stereo partly drawn)
inactive
